Where do the numbers come from? From ChEMBL document CHEMBL3091374.

Recorded measurements of pEC50, one per entry
assay: Antiproliferative activity against human 786-O cells assessed as ATP level after 72 hrs by CellTiter-Glo assay; assay type: functional, cell-based; conditions: 786-0, 72 h
pEC50: −log10 of the molar value.
measure: pEC50

{"columns": ["smiles notation", "observed measurement"],
 "data": [
  ["C[C@@H](O)[C@@]12O[C@]13c1cc(O)c4c(c1N[C@H]2C#C/C=C\\C#C[C@H]3O)C(=O)c1ccc(NCCN)cc1C4=O", 8.89],
  ["C[C@@H](O)[C@@]12O[C@]13c1cc(O)c4c(c1N[C@H]2C#C/C=C\\C#C[C@H]3O)C(=O)c1ccc(NC(=O)c2ccc(N)cc2)cc1C4=O", 10.24]
]}
